The reported numbers originate from ChEMBL document CHEMBL1127427.

Species: Rattus norvegicus
Test: Compound is tested in male rats for its effect on the prostate weight
Type: functional, Prostate gland
Parameters: concentration or dose not given beside the values
observable: Activity (%)

* C[C@]12CC[C@@H]3c4ccc(O)cc4CC[C@H]3[C@@H]1CC[C@@H]2OC(=O)C1=CN(CCCO)C=CC1 | 75.22
* C[C@]12CC[C@@H]3c4ccc(O)cc4CC[C@H]3[C@@H]1CC[C@@H]2O [ESTRADIOL] | 62.26
* CCN1C=CCC(C(=O)O[C@H]2CC[C@H]3[C@@H]4CCc5cc(O)ccc5[C@H]4CC[C@]23C)=C1 | 32.06
* CCCN1C=CCC(C(=O)O[C@H]2CC[C@H]3[C@@H]4CCc5cc(O)ccc5[C@H]4CC[C@]23C)=C1 | 46.4
* C[C@]12CC[C@@H]3c4ccc(O)cc4CC[C@H]3[C@@H]1CC[C@@H]2OC(=O)C1=CN(Cc2ccccc2)C=CC1 | 67.38
* CC(C)N1C=CCC(C(=O)O[C@H]2CC[C@H]3[C@@H]4CCc5cc(O)ccc5[C@H]4CC[C@]23C)=C1 | 68.64
* CN1C=CCC(C(=O)O[C@H]2CC[C@H]3[C@@H]4CCc5cc(O)ccc5[C@H]4CC[C@]23C)=C1 | 35.75
* C[C@]12CC[C@@H]3c4ccc(O)cc4CC[C@H]3[C@@H]1CC[C@@H]2OC(=O)C1=CN(CC2CC2)C=CC1 | 54.31
* CCCCCCN1C=CCC(C(=O)O[C@H]2CC[C@H]3[C@@H]4CCc5cc(O)ccc5[C@H]4CC[C@]23C)=C1 | 66.26
